tested on: NCI-H1437; assay: relative viability (nuclei count vs DMSO), 5 days (fraction); higher = more cells survive; settings: first compound 0.253 µM
Here, each record is paired with measured relative viability data.

// below: answered compounds
[
  {
    "compound": "Cc1cnc(-c2cnc(NCCNc3ccc(C#N)cn3)nc2-c2ccc(Cl)cc2Cl)[nH]1 + Cc1nc(Nc2ncc(C(=O)Nc3c(C)cccc3Cl)s2)cc(N2CCN(CCO)CC2)n1 [Dasatinib] (partner 0.075 µM)",
    "value-observed": 0.369
  },
  {
    "compound": "Cc1cnc(-c2cnc(NCCNc3ccc(C#N)cn3)nc2-c2ccc(Cl)cc2Cl)[nH]1 + O=C(CCCCCCC(=O)Nc1ccccc1)NO [Vorinostat] (partner 1 µM)",
    "value-observed": 0.774
  },
  {
    "compound": "Cc1cnc(-c2cnc(NCCNc3ccc(C#N)cn3)nc2-c2ccc(Cl)cc2Cl)[nH]1 + CC1(C)CCC(c2ccc(Cl)cc2)=C(CN2CCN(c3ccc(C(=O)NS(=O)(=O)c4ccc(N[C@H](CCN5CCOCC5)CSc5ccccc5)c(S(=O)(=O)C(F)(F)F)c4)cc3)CC2)C1 [Navitoclax] (partner 0.5 µM)",
    "value-observed": 1.05
  }
]

Documented relative viability of Cc1cnc(-c2cnc(NCCNc3ccc(C#N)cn3)nc2-c2ccc(Cl)cc2Cl)[nH]1 + CCNC(=O)c1noc(-c2cc(C(C)C)c(O)cc2O)c1-c1ccc(CN2CCOCC2)cc1 [Luminespib] (partner 0.01 µM) : 1.06

Entry O=c1[nH]c2ccccc2n1C1CCN(CCCC(c2ccc(F)cc2)c2ccc(F)cc2)CC1 [Pimozide] + Cc1cc(Nc2cc(N3CCN(C)CC3)nc(Sc3ccc(NC(=O)C4CC4)cc3)n2)n[nH]1 [Tozasertib] (partner 0.1 µM) ; relative viability = 0.389

---

Entries and their relative viability
system: ABC-1; assay: relative viability (nuclei count vs DMSO), 5 days (fraction); higher = more cells survive; settings: first compound 0.02 µM
Kindly provide the number alone.

[
  {
    "compound": "CC(=O)O[C@@]12CO[C@@H]1C[C@H](O)[C@@]1(C)C(=O)[C@H](O)C3=C(C)[C@@H](OC(=O)[C@H](O)[C@@H](NC(=O)OC(C)(C)C)c4ccccc4)C[C@@](O)([C@@H](OC(=O)c4ccccc4)[C@H]21)C3(C)C [Docetaxel] + Cc1cc(Nc2cc(N3CCN(C)CC3)nc(Sc3ccc(NC(=O)C4CC4)cc3)n2)n[nH]1 [Tozasertib] (partner 0.1 µM)",
    "relative viability": 0.218
  }
]

Noted for CC(=O)O[C@@]12CO[C@@H]1C[C@H](O)[C@@]1(C)C(=O)[C@H](O)C3=C(C)[C@@H](OC(=O)[C@H](O)[C@@H](NC(=O)OC(C)(C)C)c4ccccc4)C[C@@](O)([C@@H](OC(=O)c4ccccc4)[C@H]21)C3(C)C [Docetaxel] + CCNC(=O)c1noc(-c2cc(C(C)C)c(O)cc2O)c1-c1ccc(CN2CCOCC2)cc1 [Luminespib] (partner 0.01 µM) : its relative viability reads 0.338

---

Below is a list of entries, each paired with its recorded relative viability value.
system: HCC-44; test: relative viability (nuclei count vs DMSO), 5 days (fraction); higher = more cells survive; conditions: first compound 8 µM
Respond with the number and no other words.

[
  {
    "compound": "O=c1[nH]c2ccccc2n1C1CCN(CCCC(c2ccc(F)cc2)c2ccc(F)cc2)CC1 [Pimozide] + Nc1ncn([C@H]2C[C@H](O)[C@@H](CO)O2)c(=O)n1 [Decitabine] (partner 2 µM)",
    "reported-property": "relative viability",
    "value-observed": 0.919
  }
]

--- query ---
Measured relative viability of O=c1[nH]c2ccccc2n1C1CCN(CCCC(c2ccc(F)cc2)c2ccc(F)cc2)CC1 [Pimozide] + CS(=O)(=O)CCNCc1ccc(-c2ccc3ncnc(Nc4ccc(OCc5cccc(F)c5)c(Cl)c4)c3c2)o1 [Lapatinib] (partner 2 µM) : 0.888
